B1: TRIM15 (parent)
chain: LSQMGAQSSGKILLCPLCQEEEQA

# Variants of: B1
# procedureSummary: protein stability index of a GFP-peptide fusion (GPS, HEK-293T) (PSI 1-6); higher = more stable;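 also: lentivirally expressed fusions sorted by FACS into six bins by GFP to DsRed ratio, PSI derived from sequencing read proportions per bin multiplied by bin number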
# testContext: c terminus: a fixed tail appended
endpointLabel: protein stability index
// no unit string in output, number only

{"sequenceInput": "LSQMGAQSSGKILLCPLCQYEEQA", "protein stability index": 2.01}
{"sequenceInput": "LSQMGAQWSGKILLCPLCQEEEQA", "protein stability index": 2.65}
{"sequenceInput": "LSHMGAQSSGKILLCPLCQEEEQA", "protein stability index": 3.95}
{"sequenceInput": "LSQMGNQSSGKILLCPLCQEEEQA", "protein stability index": 3.12}
{"sequenceInput": "LSQMGAQSSGKILLCPLCQEEEQL", "protein stability index": 2.63}
{"sequenceInput": "LSQMGAQSSGKILLCPLCQEKEQA", "protein stability index": 2.85}

Prompt: Find the recorded protein stability index belonging to LSQMGAQKSGKILLCPLCQEEEQA and report it.
Completion: 3.4

Prompt: Find the recorded protein stability index belonging to LSQMGAQSSGKISLCPLCQEEEQA and report it.
Completion: 4.5

meta.source: the supplement of paper PMC10567573
